Reference for the values: patent US11214803B2

Tested on: Yap1 mRNA
Assay explanation: Antisense inhibition of human Yap1 in A-431 cells by cEt gapmers, single dose (Example 2, RTS4814)
Format: cell-based
Measurement setup: Yap1 mRNA as percent of untreated control; A-431 cells; 3-10-3 cEt gapmers targeting SEQ ID NO.: 1, and 2; Table 31
Strand notation (5' to 3'): a small letter for the sugar, then the base; units joined by * are phosphorothioate-linked, units joined directly phosphodiester-linked; [ ] holds rarer units or linkages, { } end groups; capitals alone tell only the bases. k = constrained ethyl (cEt); [5mC] = 5-methylcytosine; d = 2'-deoxy (DNA)
// map YAP1 (% UTC) to label using band 1 = under 20 % UTC, band 2 = from 20 % UTC up to 60 % UTC, band 3 = 60 % UTC and over

Substance | Group
1075921 (antisense kG*kA*kA*dA*dG*dA*dA*dA*dG*d[5mC]*dT*dG*d[5mC]*kG*k[5mC]*kA) [compound 1075921] | band 3
1076017 (k[5mC]*kT*kA*dA*dT*dA*dG*dG*dA*dT*dG*dG*dA*kT*kT*k[5mC]; antisense) [compound 1076017] | band 1
1074801 (kA*k[5mC]*kA*dA*dA*dT*dA*dG*dT*dG*d[5mC]*dT*dT*kT*kG*kG; antisense) [compound 1074801] | band 1
1074289 (antisense kT*kG*kA*d[5mC]*dT*dG*dA*dT*dT*d[5mC]*dT*d[5mC]*dT*kG*kG*kT) [compound 1074289] | band 1
1075569 (kG*kT*kA*dG*dA*dA*dA*dG*dG*d[5mC]*dA*dT*dT*kA*kG*kA; antisense) [compound 1075569] | band 2
1076497 (kA*kA*kA*dG*dA*dA*dT*dA*d[5mC]*d[5mC]*dA*dA*d[5mC]*k[5mC]*kT*kG; antisense) [compound 1076497] | band 3
1076465 (kG*k[5mC]*kT*dT*dA*dA*dG*dG*dA*dA*dT*dA*dT*kA*k[5mC]*kA; antisense) [compound 1076465] | band 1
1074865 (kA*k[5mC]*kA*dT*dA*dT*dG*dA*dG*d[5mC]*dA*dT*dG*k[5mC]*kT*k[5mC]; antisense) [compound 1074865] | band 2
1074193 (antisense kG*kG*kT*d[5mC]*d[5mC]*dG*dG*dA*d[5mC]*dG*dG*d[5mC]*dG*kG*kG*k[5mC]) [compound 1074193] | band 3
1075345 (antisense kG*kT*kA*dA*d[5mC]*dT*dA*dA*dA*dA*dG*dG*dG*kA*kG*kT) [compound 1075345] | band 2
1074545 (kA*k[5mC]*kT*d[5mC]*d[5mC]*d[5mC]*d[5mC]*dT*dA*dG*dG*d[5mC]*dA*k[5mC]*kT*kA; antisense) [compound 1074545] | band 1
1076337 (antisense kA*kT*kT*dA*dA*dA*d[5mC]*d[5mC]*dA*dG*dG*dG*dA*k[5mC]*kT*kG) [compound 1076337] | band 2
1076305 (kT*kA*k[5mC]*dT*dA*dA*dT*dA*dA*dG*d[5mC]*d[5mC]*dT*k[5mC]*kA*k[5mC]; antisense) [compound 1076305] | band 2
1074993 (antisense kT*k[5mC]*kT*dA*dA*dT*d[5mC]*dA*dA*d[5mC]*dA*d[5mC]*dT*kG*kG*kA) [compound 1074993] | band 3
1074449 (k[5mC]*kT*kA*dA*dT*dG*dA*dT*dA*dG*d[5mC]*dA*d[5mC]*kT*kA*kG; antisense) [compound 1074449] | band 2
1074321 (antisense kG*kG*kG*d[5mC]*dT*dA*dA*d[5mC]*dT*d[5mC]*d[5mC]*dT*dG*kA*k[5mC]*kA) [compound 1074321] | band 3
1074897 (antisense kG*kG*k[5mC]*dA*dA*dA*dG*dT*dT*d[5mC]*d[5mC]*dT*dA*kT*kG*k[5mC]) [compound 1074897] | band 3
1076209 (k[5mC]*kA*kT*dT*dA*dG*d[5mC]*dA*d[5mC]*dA*d[5mC]*d[5mC]*dT*kT*kT*kT; antisense) [compound 1076209] | band 1
1074353 (antisense kG*kA*k[5mC]*dA*d[5mC]*dT*dG*dT*dA*dG*d[5mC]*dT*dG*k[5mC]*kT*k[5mC]) [compound 1074353] | band 1
1075377 (antisense k[5mC]*kT*kA*dG*dA*dA*dA*dG*dG*dT*dT*dG*dG*k[5mC]*k[5mC]*k[5mC]) [compound 1075377] | band 3
1075025 (antisense kA*k[5mC]*kT*dT*dA*dA*dG*dA*dA*d[5mC]*dT*d[5mC]*dA*k[5mC]*kA*k[5mC]) [compound 1075025] | band 2
